Reported values of Cell survival rate (%) for individual entries
tested on: 293T cells; assay: Cell survival rate determination (CCK-8); format: cell-based; details: LNP formulation of Fluc-mRNA, 24 hours, CCK-8

| molecule | Cell survival rate (%) |
| --- | --- |
| CCCCCCCCCCOC(=O)CCCN(CCO)CCCCCC(=O)OCC(CCCCCCCC)CCCCCCCC [YK-009, reference compound] | 72.55 |
| CCCCCCCCC(CCCCCC)C(=O)OCCCCCCN(CCCCO)CCCCCCOC(=O)C(CCCCCC)CCCCCCCC (stereo not shown) [ALC-0315, reference compound] | 51.03 |
| CCCCCCCCC(CCCCCCCC)COC(=O)CCCCCN(CCCCCC(=O)OCC(CCCCCCCC)CCCCCCCC)C[C@H](O)CN(C)CCO | 82.18 |
| CCCCCCC(CCCCCC)CCOC(=O)CCCCCN(CCCCCC(=O)OCCC(CCCCCC)CCCCCC)C[C@H](O)CN(C)CCO | 42.19 |
| CCCCCCCCCCCOC(=O)CCCCCN(CCCC(=O)OCCCC(CCCCCCCCCC)CCCCCCCCCC)C[C@H](O)CN(CC)CCO | 82.10 |
| CCCCCCCCCCC(CCCCCCCCCC)CCCOC(=O)CCCN(CCCC(=O)OCCCC(CCCCCCCCCC)CCCCCCCCCC)C[C@H](O)CN(CCO)CCO | 72.34 |
| CCCCCCCCCCCCC(O)CN(C)CCCCCC(=O)OCC(CCCCCC)CCCCCCCC (stereo not shown) [HHMA, reference compound] | 66.47 |
| CCCCCCCCCCCOC(=O)CCCCCN(CCO)CCCCCCCC(=O)OC(CCCCCCCC)CCCCCCCC [SM-102, reference compound] | 69.45 |
| CCCCCCCCCCOC(=O)CCCN(CCCCCC(=O)OCC(CCCCCCCC)CCCCCCCC)C[C@H](O)CN(C)CCO | 52.96 |
| CCCCCCCCCCC(CCCCCCCCCC)CCCOC(=O)CCCN(CCCC(=O)OCCCC(CCCCCCCCCC)CCCCCCCCCC)C[C@H](O)CN(CC)CCO | 71.28 |

* * *

test system: female BALB/C mice; assay: Live imaging in mice: protein expression of Fluc-mRNA delivered by LNP formulations; format: in vivo; details: 24 h; comparator YK-302
recorded-metric: expression of mRNA in mice, times that of YK-302

| test-smiles | result |
| --- | --- |
| CCCCCCCCC(CCCCCCCC)COC(=O)CCCCCN(CCCCCC(=O)OCC(CCCCCCCC)CCCCCCCC)C[C@H](O)CN(CC)CCO | 575.97 times |
| CCCCCCCCCCCOC(=O)CCCCCN(CCCC(=O)OCCCC(CCCCCCCCCC)CCCCCCCCCC)C[C@H](O)CN(CC)CCO | 746.29 times |
| CCCCCCCCC(CCCCCCCC)COC(=O)CCCCCN(CCCCCC(=O)OCC(CCCCCCCC)CCCCCCCC)C[C@H](O)CN(C)CCO | 713.70 times |
| CCCCCCC(CCCCCC)CCOC(=O)CCCCCCN(CCCCCCC(=O)OCCC(CCCCCC)CCCCCC)C[C@H](O)CN(CCO)CCO | 615.26 times |

* * *

test: Particle size and polydispersity index (PDI) of lipid nanoparticles by dynamic light scattering; assay type: physicochemical; conditions: LNP formulation prepared from the cationic lipid, 25° C.

| molecule | PDI (%) |
| --- | --- |
| CCCCCCCCCCCOC(=O)CCCCCN(CCO)CCCCCCCC(=O)OC(CCCCCCCC)CCCCCCCC [SM-102, reference compound] | 28.2 |
| CCCCCCCCC(CCCCCCCC)COC(=O)CCCCCN(CCCCCC(=O)OCC(CCCCCCCC)CCCCCCCC)C[C@H](O)CN(CC)CCO | 33.4 |
| CCCCCCCCC(CCCCCCCC)COC(=O)CCCCCN(CCCCCC(=O)OCC(CCCCCCCC)CCCCCCCC)C[C@H](O)CN(C)CCO | 10.7 |
